study target: Regulator of G-protein signaling 19 (Homo sapiens)
experimental protocol: analogs regulating RGS19 interaction with Gαo – biochemical, SAR compounds, multiplexed bead flow cytometry, SAR follow-up (AID 2311)
experimental parameters: Bead-bound RGS19 and AF488-Galphao binding
measured metric: EC50

Entry `NS(=O)(=O)c1ccc(N/N=C/c2ccc(O)c(O)c2O)c([N+](=O)[O-])c1` has what EC50?
109 nM

====

study target: Regulator of G-protein signaling 19 (Homo sapiens)
experimental protocol: analogs regulating RGS19 interaction with Gαo – biochemical, SAR compounds, multiplexed bead flow cytometry, SAR follow-up (AID 2311)
experimental parameters: Bead-bound RGS19 and AF488-Galphao binding, measured here: Ki calculated from EC50
# log10(Ki) per entry
Kindly note that the scale is log10 and the underlying Ki is in µM.

Below are worked cases with known answers.
> print(dat)
                                   compound                              study.target  readout.value
1              COc1ccc(C2=CC(=O)C=CC2=O)cc1  Regulator of G-protein signaling 19 (Homo sapiens)          -0.80
2  CC(=O)OCCCNc1cc(Sc2nc3ccccc3s2)c2nonc2c1[N+](=O)[O-]  Regulator of G-protein signaling 19 (Homo sapiens)          -2.00

Shift focus to the following entry.
Which log10(Ki) is listed for CCC(=O)NC(c1ccc(C)cc1)c1cc([N+](=O)[O-])c2cccnc2c1O (stereo unspecified) ?
0.06
